Cited source for all entries: patent US11230543B2

tested on: Pseudomonas aeruginosa expressing AmpC (CL5701); assay: Antibiotic activity: growth inhibitory concentration (OD600), Pseudomonas aeruginosa CL5701; type: cell-based; settings: lowest concentration inhibiting 95% of bacterial growth; in the presence of β lactamase inhibitor Relebactam 4 μg/mL; 35±2° C. for 22 hours; tested range 100 μM to 0.098 μM
measured_parameter: PA_CL5701 MITC95 (µM)

INSERT INTO measurements (molecular_string, measured_parameter, uom, measured_result) VALUES
  ('C[n+]1nc(NCCCN)ccc1-c1ccc(OC[C@H](O/N=C(\C(=O)N[C@@H]2C(=O)N(OS(=O)(=O)[O-])C2(C)C)c2csc(N)n2)C(=O)O)cc1', 'PA_CL5701 MITC95', 'µM', 3.125),
  ('CC1(C)[C@H](NC(=O)/C(=N\O[C@@H](COc2ccc(-c3cnn(CCCN)c3)nc2)C(=O)O)c2csc(N)n2)C(=O)N1OS(=O)(=O)O.O=C(O)C(F)(F)F', 'PA_CL5701 MITC95', 'µM', 12.5),
  ('C[n+]1cc(-c2ccc(OC[C@H](O/N=C(\C(=O)N[C@@H]3C(=O)N(OS(=O)(=O)O)C3(C)C)c3csc(N)n3)C(=O)O)cc2)cn1CCCNCC1CNC1', 'PA_CL5701 MITC95', 'µM', 3.125);
